B1: HDV Ribozyme (parent)
chain: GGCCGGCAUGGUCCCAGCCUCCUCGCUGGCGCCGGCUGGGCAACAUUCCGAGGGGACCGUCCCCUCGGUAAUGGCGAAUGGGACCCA

# Variants of: B1
# experimental.protocol: self-cleavage, relative activity (ratio to wild type); higher = more cleavage; co-transcriptional
Please use yes (1) whenever self-cleavage is not below 0.2, and no (0) whenever it is.

Consider the worked cases shown below.
> print(dat)
    variant.notation  classification
 1         U27C A43G         yes (1)
 2          C4G G74A          no (0)
 3         C62U G74C         yes (1)
 4          C7A U46G          no (0)
 5         G54A U69C         yes (1)
 6         U27G C75A          no (0)
 7         U60A G67A         yes (1)
 8         A71U G81A         yes (1)
 9         G10A G25C          no (0)
10          C7U C36G          no (0)

Now, please, on to the next variant.
Quick check, self-cleavage >= 0.2? C13U G55U yes (1)

The reported numbers originate from the RNAGym collection of RNA variant scans (doi:10.7554/elife.80360).
